Experiment: Pharmacokinetic evaluation of compounds in rats
Assay type: in vivo
Conditions: rat, plasma; SD rats, IV, 1.0 mg/kg (002), 0.85 mg/kg (003B)
REPORTED PROPERTY: clearance (mL/min/kg)
A number alone suffices; assume mL/min/kg.

Recorded clearance for Nc1nccc2c1n(-c1ccc(Oc3ccccc3)cc1)c(=O)n2[C@@H]1CCCN(C(=O)/C=C/CF)C1 [Compound 002] , please?
26

---

Assay: Pharmacokinetic evaluation of compounds in dogs
Format: in vivo
Details: dog, plasma; beagle dogs, IV, 0.49 mg/kg (002), 0.5 mg/kg (003B)
REPORTED PROPERTY: Vd (L/kg)
Quick reminder: number only, in L/kg, skip the unit.

Record request: Vd value, item Nc1nccc2c1n(-c1ccc(Oc3ccccc3)cc1)c(=O)n2[C@@H]1CCCN(C(=O)/C=C/CF)C1 [Compound 002]
1.5

---

Assay: Pharmacokinetic evaluation of compounds in dogs
Type: in vivo
Conditions: dog, plasma; beagle dogs, PO, 2.0 mg/kg
REPORTED PROPERTY: bioavailability

bioavailability for Nc1nccc2c1n(-c1ccc(Oc3ccccc3)cc1)c(=O)n2[C@@H]1CCCN(C(=O)/C=C/CF)C1 [Compound 002] ?
82.2%

---

Assay: Pharmacokinetic evaluation of compounds in dogs
Format: in vivo
Details: dog, plasma; beagle dogs, PO, 2.0 mg/kg
REPORTED PROPERTY: half-life (min)
Dear colleague, please return just the value in min, with no unit written.

If you can, please state the reported half-life value of Nc1nccc2c1n(-c1ccc(Oc3ccccc3)cc1)c(=O)n2[C@@H]1CCCN(C(=O)/C=C/CF)C1 .
42.6

---

Assay: Pharmacokinetic evaluation of compounds in rats
Type: in vivo
Conditions: rat, plasma; SD rats, PO, 9.2 mg/kg (002), 8.4 mg/kg (003B)
REPORTED PROPERTY: Cmax (nM)
Entry rule: numbers only, all in nM.

Which Cmax is reported for this molecule? Nc1nccc2c1n(-c1ccc(Oc3ccccc3)cc1)c(=O)n2[C@@H]1CCCN(C(=O)/C=C/CF)C1 [Compound 002]
1800

---

Assay: Pharmacokinetic evaluation of compounds in mice
Type: in vivo, CD-1 mice
Details: mouse, plasma; CD-1 male mice, IV, 1.0 mg/kg (002), 1.2 mg/kg (003B)
Experimental: Experimental purpose: To test the in vivo pharmacokinetic data of compounds in CD-1 mice. The compound was mixed with the solvent 5% DMSO/5% Solutol/90% H2O, vortexed and sonicated to prepare a 0.5 mg/mL clear solution. CD-1 male mice aged 7 to 10 weeks were selected, and administered the candidate compound solution intravenously. […] The drug concentration was analyzed by LC-MS/MS method, and pharmacokinetic parameters were calculated by Phoenix WinNonlin software (Pharsight Company, USA). […]
REPORTED PROPERTY: half-life (min)
Numeric only. Scale: min

Would you mind telling me what half-life value was observed for Nc1nccc2c1n(-c1ccc(Oc3ccccc3)cc1)c(=O)n2[C@@H]1CCCN(C(=O)/C=C/CF)C1 [Compound 002] ?
16.8

---

Assay: Pharmacokinetic evaluation of compounds in dogs
Type: in vivo
Conditions: dog, plasma; beagle dogs, PO, 2.0 mg/kg
REPORTED PROPERTY: Tmax (min)
Write it as a number; the unit min goes unstated.

Requested read-out: Tmax. Entry: Nc1nccc2c1n(-c1ccc(Oc3ccccc3)cc1)c(=O)n2[C@@H]1CCCN(C(=O)/C=C/CF)C1 [Compound 002]
30

---

Assay: Pharmacokinetic evaluation of compounds in dogs
Format: in vivo
Details: dog, plasma; beagle dogs, IV, 0.49 mg/kg (002), 0.5 mg/kg (003B)
REPORTED PROPERTY: half-life (min)
Field format: number, assumed min, no unit text.

# half-life lookup, item Nc1nccc2c1n(-c1ccc(Oc3ccccc3)cc1)c(=O)n2[C@@H]1CCCN(C(=O)/C=C/CF)C1 [Compound 002]
58.2

Values from patent US20240217973A1
